test: Antioxidant activity, cell viability (MTT) after hydrogen peroxide stress; type: cell-based; conditions: mouse, NCTC clone 929 cells, Without H2O2, read-out: Cellular viability (%)
measured_quantity: viability at 24 h, 0.56 mg/ml (%)
Answers are plain numbers, in %.

Lookup result for O=C1O[C@H]([C@@H](O)CO)C(O)=C1O ; measured viability at 24 h, 0.56 mg/ml: 77.6

These entries and their values trace back to patent US12343368B2.
